Measured pIC50, listed per entry.
Test system: VA-ES-BJ tumor spheroid viability
measurement-description: Anticancer human tumor VA-ES-BJ cell line growth inhibition;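 also: spheroids exposed to compounds for seven days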
experimental-conditions: curve of first compound; second compound 0.003 µM; spheroids with HUVEC and MSC
pIC50: −log10 of the molar value.

INSERT INTO results (compound, assay_readout, result) VALUES
  ('COc1cc(C)[nH]c(=O)c1CN1CCc2c(Cl)cc(C(OC)C3COC3)c(Cl)c2C1=O (centres undefined) + COc1cc2c(cc1O)CCNC21CSC2c3c(OC(C)=O)c(C)c4c(c3C(COC1=O)N1C(O)C3Cc5cc(C)c(OC)c(O)c5C(C21)N3C)OCO4', 'pIC50', '> 7.50'),
  ('O=C(c1cc(Cc2n[nH]c(=O)c3ccccc23)ccc1F)N1CCN(C(=O)C2CC2)CC1 + COc1cc2c(cc1O)CCNC21CSC2c3c(OC(C)=O)c(C)c4c(c3C(COC1=O)N1C(O)C3Cc5cc(C)c(OC)c(O)c5C(C21)N3C)OCO4', 'pIC50', '> 7.02'),
  ('CC(C)n1c(=O)n(C)c2cnc3cc(F)c(-c4ccc(OCCCN5CCCCC5)nc4)cc3c21 + COc1cc2c(cc1O)CCNC21CSC2c3c(OC(C)=O)c(C)c4c(c3C(COC1=O)N1C(O)C3Cc5cc(C)c(OC)c(O)c5C(C21)N3C)OCO4', 'pIC50', '> 7.50'),
  ('Cc1sc2c(c1C)C(c1ccc(Cl)cc1)=NC(CC(=O)Nc1ccc(O)cc1)c1nnc(C)n1-2 (centres undefined) + COc1cc2c(cc1O)CCNC21CSC2c3c(OC(C)=O)c(C)c4c(c3C(COC1=O)N1C(O)C3Cc5cc(C)c(OC)c(O)c5C(C21)N3C)OCO4', 'pIC50', '> 8.02'),
  ('COc1cc(C)[nH]c(=O)c1CN1CCc2c(Cl)cc(C(OC)C3COC3)c(Cl)c2C1=O (centres undefined) + CC[C@@]1(O)C(=O)OCc2c1cc1n(c2=O)Cc2cc3c(CN(C)C)c(O)ccc3nc2-1', 'pIC50', '< 5.00'),
  ('CNCc1ccc(-c2cc(-c3nc(-c4ccc(S(=O)(=O)C(C)C)cc4)cnc3N)on2)cc1 + COc1cc2c(cc1O)CCNC21CSC2c3c(OC(C)=O)c(C)c4c(c3C(COC1=O)N1C(O)C3Cc5cc(C)c(OC)c(O)c5C(C21)N3C)OCO4', 'pIC50', '> 8.02'),
  ('Cc1sc2c(c1C)C(c1ccc(Cl)cc1)=NC(CC(=O)Nc1ccc(O)cc1)c1nnc(C)n1-2 (centres undefined) + CC[C@@]1(O)C(=O)OCc2c1cc1n(c2=O)Cc2cc3c(CN(C)C)c(O)ccc3nc2-1', 'pIC50', 7.00),
  ('O=C(c1cc(Cc2n[nH]c(=O)c3ccccc23)ccc1F)N1CCN(C(=O)C2CC2)CC1 + CC[C@@]1(O)C(=O)OCc2c1cc1n(c2=O)Cc2cc3c(CN(C)C)c(O)ccc3nc2-1', 'pIC50', 4.92);

Proceeding to the next compound to report its pIC50.
Exercise: Give reported pIC50 value for Cn1ncnc1[C@H]1c2n[nH]c(=O)c3cc(F)cc(c23)N[C@@H]1c1ccc(F)cc1 + COc1cc2c(cc1O)CCNC21CSC2c3c(OC(C)=O)c(C)c4c(c3C(COC1=O)N1C(O)C3Cc5cc(C)c(OC)c(O)c5C(C21)N3C)OCO4
Key: > 8.02
